endpointLabel: melting point (°C)

a: C[C@H]1CN(c2ccc(C(F)(F)F)c(F)c2)C(=O)c2c(NC(=O)c3cccnc3)cnn21 [Co. No. 148]
b: Cc1cccnc1C(=O)Nc1cnn2c1C(=O)N(c1ccc(C(F)(F)F)cc1)C[C@@H]2C
Look at a and b . Which one has the lower recorded melting point number? Returns: label corresponding to the selected item. a
(a: 166.06 °C, b: 292.16 °C)

====

# targetOrTestSystem: human mGlu2 receptor (Homo sapiens)
# Construct: expressed in transfected cells; host or cells: CHO cells
# testDescription: [35S]GTPγS binding assay (mGluR2 negative allosteric modulation, glutamate ~EC80 60 μM)
# Assay type: biochemical
# testContext: maximal % inhibition relative to the control glutamate response (EC80 glutamate); read-out: GTPγS-hmGluR2 anGT Emax
endpointLabel: Emax (%)

Cc1cnc(N)c(C(=O)Nc2cnn3c2C(=O)N(c2ccc(Cl)cc2)C[C@@H]3C)c1
108
Cc1ncc(C(=O)Nc2cnn3c2C(=O)N(c2ccc(C(F)(F)F)cc2)C[C@@H]3C)cn1
99
COc1cncc(C(=O)Nc2cnn3c2C(=O)N(c2ccc(C(F)(F)F)c(Cl)c2)C[C@@H]3C)c1C
106
Cc1cc(C(=O)Nc2cnn3c2C(=O)N(c2ccc(C(F)(F)F)cc2)C[C@@H]3C)c(C)cn1
106
COCc1ccccc1C(=O)Nc1cnn2c1C(=O)N(c1ccc(C(F)(F)F)cc1)C[C@@H]2C
105
COc1cc(F)ccc1C(=O)Nc1cnn2c1C(=O)N(c1ccc(C(F)(F)F)cc1)C[C@@H]2C
101
COc1cncc(C(=O)Nc2cnn3c2C(=O)N(c2ccc(Cl)cc2)C[C@@H]3C)c1
106
COc1cncc(C(=O)Nc2cnn3c2C(=O)N(c2ccc(C(F)(F)F)cc2)C[C@@H]3C)c1C
105

====

# targetOrTestSystem: human mGlu2 receptor (Homo sapiens, UniProt Q14416)
# Construct: expressed in transfected cells; host or cells: CHO cells
# Sequence (Q14416 19-872): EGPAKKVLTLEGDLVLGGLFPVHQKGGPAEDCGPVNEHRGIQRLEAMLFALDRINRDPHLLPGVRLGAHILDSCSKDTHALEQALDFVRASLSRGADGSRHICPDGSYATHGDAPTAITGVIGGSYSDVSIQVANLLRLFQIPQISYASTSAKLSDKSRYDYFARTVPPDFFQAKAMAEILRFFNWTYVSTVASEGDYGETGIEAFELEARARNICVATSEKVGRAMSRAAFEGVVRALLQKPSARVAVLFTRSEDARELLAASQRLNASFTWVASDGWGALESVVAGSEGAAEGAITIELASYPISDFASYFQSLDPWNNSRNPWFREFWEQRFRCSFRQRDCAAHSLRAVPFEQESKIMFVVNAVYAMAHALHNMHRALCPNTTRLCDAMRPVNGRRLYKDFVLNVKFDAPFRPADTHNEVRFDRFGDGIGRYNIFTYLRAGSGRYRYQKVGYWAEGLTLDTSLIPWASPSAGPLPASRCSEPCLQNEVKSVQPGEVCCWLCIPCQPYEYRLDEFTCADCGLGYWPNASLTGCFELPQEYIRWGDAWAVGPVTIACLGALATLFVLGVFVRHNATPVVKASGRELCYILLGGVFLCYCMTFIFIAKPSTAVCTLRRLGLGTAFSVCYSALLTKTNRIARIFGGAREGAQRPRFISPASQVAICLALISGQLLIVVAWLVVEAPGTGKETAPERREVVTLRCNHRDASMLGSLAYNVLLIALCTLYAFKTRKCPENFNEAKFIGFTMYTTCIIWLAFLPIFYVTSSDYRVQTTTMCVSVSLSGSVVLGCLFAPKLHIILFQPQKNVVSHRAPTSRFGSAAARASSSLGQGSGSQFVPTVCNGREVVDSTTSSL
# testDescription: [35S]GTPγS binding assay (mGluR2 negative allosteric modulation, glutamate ~EC80 60 μM)
# Type: biochemical
# testContext: membranes from CHO cells transfected with human mGlu2 receptor; glutamate ~EC80 (60 μM); pIC50 = −log IC50 (M); read-out: GTPγS-hmGluR2 anGT pIC50 (converted)
endpointLabel: IC50 (M)

In the examples that follow, each entry is paired with its recorded IC50.
C[C@H]1CN(c2ccc(C(F)(F)F)cc2)C(=O)c2c(NC(=O)c3ncco3)cnn21
2.63e-08
C[C@H]1CN(c2ccc(Cl)c(Cl)c2)C(=O)c2c(NC(=O)c3cncc(F)c3)cnn21
1.38e-09
C[C@H]1CN(c2ccc(Cl)cc2)C(=O)c2c(NC(=O)c3cccnc3N)cnn21
4.07e-09

A: C[C@H]1CN(c2ccc(C(F)(F)F)cn2)C(=O)c2c(NC(=O)c3ccc(N)nc3)cnn21
B: COc1nc(N2C[C@H](C)n3ncc(NC(=O)c4ccc(N)nc4)c3C2=O)ccc1C(F)(F)F
C: Cc1cnc(N)c(C(=O)Nc2cnn3c2C(=O)N(c2ccc(Cl)cc2)C[C@@H]3C)c1
Rank entries according to their IC50, from the largest number down. As an answer, provide the labels arranged in the order called for. A, B, C

====

# targetOrTestSystem: human mGlu2 receptor (Homo sapiens, UniProt Q14416)
# Construct: expressed in transfected cells; host or cells: CHO cells
# testDescription: [35S]GTPγS binding assay (mGluR2 negative allosteric modulation, glutamate ~EC80 60 μM)
# Assay type: biochemical
# testContext: membranes from CHO cells transfected with human mGlu2 receptor; glutamate ~EC80 (60 μM); pIC50 = −log IC50 (M); read-out: GTPγS-hmGluR2 anGT pIC50 (converted)
endpointLabel: IC50 (M)

Cc1ccncc1C(=O)Nc1cnn2c1C(=O)N(c1ccc(C(F)(F)F)c(Cl)c1)C[C@@H]2C
1.82e-09

P: C[C@H]1CN(c2ccc(C(F)(F)F)cc2)C(=O)c2c(NC(=O)c3ccc(N)nn3)cnn21
Q: COc1cccc(C(=O)Nc2cnn3c2C(=O)N(c2ccc(C(F)(F)F)cc2)C[C@@H]3C)c1
R: COCC1CN(c2ccc(C(F)(F)F)cc2)C(=O)c2c(NC(=O)c3ccccc3F)cnn21 (single isomer, unassigned) [Co. No. 62a]
Let's sort these by IC50, smallest first. Go ahead? As an answer, provide the labels arranged in the order called for. Q, R, P

====

# targetOrTestSystem: human mGlu2 receptor (Homo sapiens)
# Construct: expressed in transfected cells; host or cells: CHO cells
# testDescription: [35S]GTPγS binding assay (mGluR2 negative allosteric modulation, glutamate ~EC80 60 μM)
# Format: biochemical
# testContext: membranes from CHO cells transfected with human mGlu2 receptor; glutamate ~EC80 (60 μM); pIC50 = −log IC50 (M); read-out: GTPγS-hmGluR2 anGT pIC50 (converted)
endpointLabel: IC50 (M)

In the examples that follow, each entry is paired with its recorded IC50.
CC(=O)Nc1ccc(C(=O)Nc2cnn3c2C(=O)N(c2ccc(C(F)(F)F)cc2)C[C@@H]3C)cn1
6.03e-09
Cc1cc(C(=O)Nc2cnn3c2C(=O)N(c2ccc(C(F)(F)F)cc2)C[C@@H]3C)on1
3.8e-08
Cc1cc(C(=O)Nc2cnn3c2C(=O)N(c2ccc(C(F)(F)F)c(Cl)c2)C[C@@H]3C)cc(C)n1
1.32e-09
COc1cc(N2C[C@H](C)n3ncc(NC(=O)c4ccc(N)nc4)c3C2=O)ccc1C(F)(F)F
9.12e-09
Cc1cnc(N)c(C(=O)Nc2cnn3c2C(=O)N(c2ccc(C(F)(F)F)cc2)C[C@@H]3C)c1
1.95e-09

1: C[C@H]1CN(c2ccc(C(F)(F)F)cc2)C(=O)c2c(NC(=O)c3ccncc3)cnn21
2: Cc1cnc(NC(C)(C)C)c(C(=O)Nc2cnn3c2C(=O)N(c2ccc(C(F)(F)F)c(Cl)c2)C[C@@H]3C)c1
Higher IC50: 1 or 2 ? Returns: label corresponding to the selected item. 2

====

endpointLabel: melting point (°C)

In the examples that follow, each entry is paired with its recorded melting point.
COc1cc(N2C[C@H](C)n3ncc(NC(=O)c4cncc(C)c4)c3C2=O)ccc1C(F)(F)F [Co. No. 117]
166.32
COc1cncc(C(=O)Nc2cnn3c2C(=O)N(c2ccc(C(F)(F)F)cc2)C[C@@H]3C)c1 [Co. No. 32]
174.59
COc1ccc(C(=O)Nc2cnn3c2C(=O)N(c2ccc(C(F)(F)F)c(OC)n2)C[C@@H]3C)cc1 [Co. No. 77]
194.9
C[C@H]1CN(c2ccc(C(F)(F)F)cc2)C(=O)c2c(NC(=O)c3ncc[nH]3)cnn21 [Co. No. 80]
275.03
Cc1cc(C(=O)Nc2cnn3c2C(=O)N(c2ccc(C(F)(F)F)c(C)c2)C[C@@H]3C)ccn1 [Co. No. 112]
128.97

A: C[C@H]1CN(c2ccc(C(F)(F)F)c(C#N)c2)C(=O)c2c(NC(=O)c3ccc(N)nc3)cnn21 [Co. No. 26]
B: Cc1cc(C(=O)Nc2cnn3c2C(=O)N(c2ccc(Cl)c(Cl)c2)C[C@@H]3C)ccn1 [Co. No. 171]
Look at A and B . Which one has the lower recorded melting point number? Returns: label corresponding to the selected item. B
(B: 108.41 °C, A: 216.96 °C)

1: Cc1cc(C(=O)Nc2cnn3c2C(=O)N(c2ccc(C(F)(F)F)c(C)c2)C[C@@H]3C)cc(C)n1 [Co. No. 113]
2: Cc1cc(C(=O)Nc2cnn3c2C(=O)N(c2ccc(C(F)(F)F)cc2)C[C@@H]3C)on1 [Co. No. 71]
Higher melting point: 1 or 2 ? Returns: label corresponding to the selected item. 2
(2: 243.14 °C, 1: 164.61 °C)

1: Cc1cnc(N)c(C(=O)Nc2cnn3c2C(=O)N(c2ccc(S(F)(F)(F)(F)F)cc2)C[C@@H]3C)c1 [Co. No. 200]
2: C[C@H]1CN(c2ccc(Cl)c(Cl)c2)C(=O)c2c(NC(=O)c3cncc(F)c3)cnn21 [Co. No. 109]
Higher melting point: 1 or 2 ? Returns: label corresponding to the selected item. 1

====

endpointLabel: melting point (°C)

Cc1cc(C(=O)Nc2cnn3c2C(=O)N(c2ccc(Cl)c(Cl)c2)C[C@@H]3C)cc(C)n1 [Co. No. 106]
186.11
C[C@H]1CN(c2ccc(C(F)(F)F)cc2)C(=O)c2c(NC(=O)c3c[nH]cn3)cnn21 [Co. No. 83]
277.42
C[C@H]1CN(c2ccc(S(F)(F)(F)(F)F)cc2)C(=O)c2c(NC(=O)c3cccnc3N)cnn21 [Co. No. 202]
223.96
Cc1cc(C(=O)Nc2cnn3c2C(=O)N(c2ccc(C(F)(F)F)cc2)C[C@@H]3C)cc(CF)n1 (racemic) [Co. No. 209]
157.37

I: C[C@H]1CN(c2ccc(Cl)c(Cl)c2)C(=O)c2c(NC(=O)c3cnccn3)cnn21 [Co. No. 104]
II: COc1cncc(C(=O)Nc2cnn3c2C(=O)N(c2ccc(C(F)(F)F)c(Cl)c2)C[C@@H]3C)c1 [Co. No. 150]
Higher melting point: I or II ? Returns: label corresponding to the selected item. I
(I: 201.39 °C, II: 133.07 °C)
